# IC50 listing for each entry below
- target-entity: UniProtKB P06276
- Sequence (P06276 whole entry): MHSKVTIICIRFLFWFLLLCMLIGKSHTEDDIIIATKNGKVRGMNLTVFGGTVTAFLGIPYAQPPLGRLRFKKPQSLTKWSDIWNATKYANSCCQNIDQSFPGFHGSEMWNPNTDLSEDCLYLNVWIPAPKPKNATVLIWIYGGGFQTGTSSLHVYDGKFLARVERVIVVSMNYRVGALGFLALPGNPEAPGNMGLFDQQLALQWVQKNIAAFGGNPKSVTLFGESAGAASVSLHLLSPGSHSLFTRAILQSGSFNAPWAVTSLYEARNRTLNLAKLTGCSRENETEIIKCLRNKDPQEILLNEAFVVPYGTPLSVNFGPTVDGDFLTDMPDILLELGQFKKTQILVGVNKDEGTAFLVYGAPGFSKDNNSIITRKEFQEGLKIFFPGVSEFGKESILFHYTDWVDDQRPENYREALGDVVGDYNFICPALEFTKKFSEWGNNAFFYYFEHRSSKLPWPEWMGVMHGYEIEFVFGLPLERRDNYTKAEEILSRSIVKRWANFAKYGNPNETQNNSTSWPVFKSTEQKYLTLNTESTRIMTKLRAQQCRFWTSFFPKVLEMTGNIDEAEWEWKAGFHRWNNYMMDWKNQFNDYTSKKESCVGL
metric-name: IC50 (µM)

INSERT INTO measurements (smiles_text, target_entity, metric_name, unit_abbrev, number) VALUES
  ('CNC(=O)Oc1cccc2c1OC[C@@H]1CCN(C)[C@H]21', 'UniProtKB P06276', 'IC50', 'µM', 0.054),
  ('CN1CC[C@H]2COc3c(O)cccc3[C@H]21', 'UniProtKB P06276', 'IC50', 'µM', 794),
  ('O=C(CCCCCCC(=O)NCCCCCCN1CC[C@H]2COc3ccccc3[C@H]21)NCCCCCCN1CC[C@H]2COc3ccccc3[C@H]21', 'UniProtKB P06276', 'IC50', 'µM', 0.912),
  ('CNC(=O)Oc1ccc2c(c1)OC[C@@H]1CC[N+](C)(C)[C@H]21', 'UniProtKB P06276', 'IC50', 'µM', 2.95),
  ('CNC(=O)Oc1ccc2c(c1)[C@@H]1[C@@H](CCN1C)CO2', 'UniProtKB P06276', 'IC50', 'µM', 10.2),
  ('CNC(=O)Oc1ccc2c(c1)OC[C@@H]1CCN(C)[C@H]21', 'UniProtKB P06276', 'IC50', 'µM', 3.55);
